# Experiment: Cmax in CD-1 mouse at 5 mg/kg, po administered as single dose measured upto 24 hrs by LC-MS/MS analysis
# Assay type: ADME, organism-based
# Set-up: time < 24 hrs, dose 5 mg/kg, route po
# Condition Set: in vivo
Readings of Cmax for the listed compounds
Field format: number, assumed ng/mL, no unit text.

Examples with answers:
O=P([O-])(OC1=Cc2c(Cl)cccc2Sc2ccccc21)OC1=Cc2c(Cl)cccc2Sc2ccccc21.[Na+] 81.8
COc1cccc2c1Sc1ccccc1C=C2OP(=O)([O-])OC1=Cc2ccccc2Sc2c(OC)cccc21.[Na+] 43.6
COc1cccc2c1Sc1cccc(F)c1C=C2OP(=O)([O-])OC1=Cc2c(F)cccc2Sc2c(OC)cccc21.[Na+] 74.3

O=P([O-])(OC1=Cc2ccccc2Sc2ccccc21)OC1=Cc2ccccc2Sc2ccccc21.[Na+] yielded Cmax of 192
